target: antibody P1; assay: peptide competition ELISA; free peptide against immobilized target peptide for P1
attributeMeasured: IC50

# binder, IC50
rows = [
    ("DPTQLTDA [nearest-neighbor 8-mer peptide DPTQLTDA]", "> 1000 µM"),
]

Continue with the binder presented below.
Please fill in: IC50 reported for EPVELTSA [nearest-neighbor 8-mer peptide EPVELTSA] = > 1000 µM
